Test system: 855422-203-R-J1-PDC spheroids with HUVEC/MSC, viability
PROTOCOL SUMMARY: Anticancer human tumor 855422-203-R-J1-PDC patient-derived bladder carcinoma cell line growth inhibition [PI3K]
EXPERIMENTAL SETUP: second compound 0.0316 µM; first compound 0.316 µM; hits give low values
# reported viability, T/C; entries follow
Please state the figure in %; there is no need to write the unit.

Example cases with answers are listed next.
INSERT INTO results (compound, metric_name, numeric_value) VALUES
  ('CCN1CCN(Cc2ccc(Nc3ncc(F)c(-c4cc(F)c5nc(C)n(C(C)C)c5c4)n3)nc2)CC1 + Cc1nc(NC(=O)N2CCCC2C(N)=O)sc1-c1ccnc(C(C)(C)C(F)(F)F)c1', 'viability, T/C', 60.1),
  ('C[C@@H](NC(=O)c1ncnc(N)c1Cl)c1ncc(C(=O)Nc2cc(C(F)(F)F)c(Cl)cn2)s1 + Cc1nc(NC(=O)N2CCCC2C(N)=O)sc1-c1ccnc(C(C)(C)C(F)(F)F)c1', 'viability, T/C', 118);

# evaluate next
Exercise: Item CC(C)NCC(C(=O)N1CCN(c2ncnc3c2C(C)CC3O)CC1)c1ccc(Cl)cc1 (stereo not drawn) + COc1c(OCCCN2CCOCC2)ccc2c3n(c(=NC(=O)c4cnc(N)nc4)nc12)CCN3 has what recorded viability, T/C?
Key: 55.6

###

Tested on: 855422-203-R-J1-PDC spheroids with HUVEC/MSC, viability
PROTOCOL SUMMARY: Anticancer human tumor 855422-203-R-J1-PDC cell line growth inhibition [PI3K];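 further: agents incubated with spheroids for one week before read-out; 100% = DMSO vehicle-treated control wells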
EXPERIMENTAL SETUP: second compound 0.0316 µM; first compound 0.1 µM; hits give low values
# reported viability, T/C; entries follow
Please state the figure in %; there is no need to write the unit.

Example cases with answers are listed next.
INSERT INTO assay_data (compound, numeric_value) VALUES
  ('Cn1ncc(Cl)c1-c1cc(C(=O)NC(CN)Cc2cccc(F)c2)sc1Cl (stereo not drawn) + COc1c(OCCCN2CCOCC2)ccc2c3n(c(=NC(=O)c4cnc(N)nc4)nc12)CCN3', 54.4),
  ('CC(C)NCC(C(=O)N1CCN(c2ncnc3c2C(C)CC3O)CC1)c1ccc(Cl)cc1 (stereo not drawn) + Cc1nc(NC(=O)N2CCCC2C(N)=O)sc1-c1ccnc(C(C)(C)C(F)(F)F)c1', 77.4);

# evaluate next
Exercise: API: value(readout=viability, T/C, system=855422-203-R-J1-PDC spheroids with HUVEC/MSC, viability) for record Cn1ncnc1[C@H]1c2n[nH]c(=O)c3cc(F)cc(c23)N[C@@H]1c1ccc(F)cc1 + CC(Nc1ccc2c(c1)OCCn1cc(N3C(=O)OCC3C(F)F)nc1-2)C(N)=O
Key: 91.8

###

# reported viability, T/C; entries follow
Test system: 855422-203-R-J1-PDC spheroids with HUVEC/MSC, viability
PROTOCOL SUMMARY: Anticancer human tumor 855422-203-R-J1-PDC cell line growth inhibition [PI3K];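 further: agents incubated with spheroids for one week before read-out; 100% = DMSO vehicle-treated control wells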
EXPERIMENTAL SETUP: second compound 1 µM; first compound 0.1 µM; hits give low values
Please state the figure in %; there is no need to write the unit.

INSERT INTO assay_data (compound, assay_target, metric_name, numeric_value) VALUES
  ('CC1(C)CCC(CN2CCN(c3ccc(C(=O)NS(=O)(=O)c4ccc(NCC5CCOCC5)c([N+](=O)[O-])c4)c(Oc4cnc5[nH]ccc5c4)c3)CC2)=C(c2ccc(Cl)cc2)C1 + Cc1nc(NC(=O)N2CCCC2C(N)=O)sc1-c1ccnc(C(C)(C)C(F)(F)F)c1', '855422-203-R-J1-PDC spheroids with HUVEC/MSC, viability', 'viability, T/C', 77);

# evaluate next
Exercise: Item C=CC(=O)N1CCN(c2nc(=O)n(-c3c(C)ccnc3C(C)C)c3nc(-c4c(O)cccc4F)c(F)cc23)C(C)C1 (configuration not stated) + Cc1nc(NC(=O)N2CCCC2C(N)=O)sc1-c1ccnc(C(C)(C)C(F)(F)F)c1 has what recorded viability, T/C?
Key: 76.1
